# target-system: T1, EsCas13d, nuclease-dead (Eubacterium siraeum, UniProt B0MS50, R295A;H300A;R849A;H854A)
# T1 sequence: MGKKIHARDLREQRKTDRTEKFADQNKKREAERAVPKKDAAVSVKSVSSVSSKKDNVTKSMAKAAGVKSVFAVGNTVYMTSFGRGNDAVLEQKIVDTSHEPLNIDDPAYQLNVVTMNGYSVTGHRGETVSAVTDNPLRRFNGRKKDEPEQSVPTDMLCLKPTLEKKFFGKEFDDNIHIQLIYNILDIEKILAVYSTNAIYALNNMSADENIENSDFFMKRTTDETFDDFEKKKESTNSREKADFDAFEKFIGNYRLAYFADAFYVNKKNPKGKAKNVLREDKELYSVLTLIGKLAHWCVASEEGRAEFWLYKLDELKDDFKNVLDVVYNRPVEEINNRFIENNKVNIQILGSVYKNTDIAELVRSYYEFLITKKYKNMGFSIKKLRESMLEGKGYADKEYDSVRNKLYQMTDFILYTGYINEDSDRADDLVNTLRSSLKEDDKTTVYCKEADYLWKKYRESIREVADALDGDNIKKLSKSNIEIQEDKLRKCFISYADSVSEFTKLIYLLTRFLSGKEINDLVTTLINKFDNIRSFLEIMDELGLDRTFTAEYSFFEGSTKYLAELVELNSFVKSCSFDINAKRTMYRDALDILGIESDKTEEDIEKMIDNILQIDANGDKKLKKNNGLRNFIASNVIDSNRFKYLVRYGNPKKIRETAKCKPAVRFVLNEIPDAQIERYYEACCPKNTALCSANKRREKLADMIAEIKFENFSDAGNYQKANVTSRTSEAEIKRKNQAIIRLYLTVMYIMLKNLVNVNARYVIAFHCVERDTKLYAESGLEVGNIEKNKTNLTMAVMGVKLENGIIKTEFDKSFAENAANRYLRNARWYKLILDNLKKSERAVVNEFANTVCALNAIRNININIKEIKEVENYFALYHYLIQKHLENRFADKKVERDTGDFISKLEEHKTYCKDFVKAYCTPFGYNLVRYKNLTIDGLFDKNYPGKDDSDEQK
# assay-info: crRNA (strand 1, pre-loaded); Mg2+; 40 mM Tris-HCl pH 7.5, 150 mM NaCl, 6 mM MgCl2, 1 mM DTT, 0.1% Tween-20, 0.2 mg/ml BSA; 25 C; 10 min per concentration, then washed
# test-context: tags: His6-TwinStrep-SUMO cleaved; N-terminal SNAP kept (SNAP-Surface 488); label: 3' end held by stalled T7 RNA polymerase
readout: Kd (nM)
Numbers only here, please. The scale is nM.

target 2 MT 5'PFS GCC 3'PFS UUC (mixed) RNA 1: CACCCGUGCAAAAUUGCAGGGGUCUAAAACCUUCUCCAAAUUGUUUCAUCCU RNA 2: GGGAAUGGAUCCACAUCUACGAAUUCGCCAGGAUGAAACAAUUUGGAGAAGUUCAGAUCGGAAGAGCACACGU ... 27
target 1 A18U (mixed) RNA 1: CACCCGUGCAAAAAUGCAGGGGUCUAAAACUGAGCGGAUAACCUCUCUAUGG RNA 2: GGGAAUGGAUCCACAUCUACGAAUUCGUACCAUUGAGAGGUUAUCCGCUCACCGAGAUCGGAAGAGCACACGU ... 26.4

Any idea what its Kd is? The binder is target 1 del4,del15 (mixed) RNA 1: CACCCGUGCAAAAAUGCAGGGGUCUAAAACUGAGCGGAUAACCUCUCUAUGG RNA 2: GGGAAUGGAUCCACAUCUACGAAUUCGUACCAUAGAAGGUUAUCCGUCACCGAGAUCGGAAGAGCACACGU
56

Any idea what its Kd is? The binder is target 1 MT 5'PFS GCA 3'PFS UGA (mixed) RNA 1: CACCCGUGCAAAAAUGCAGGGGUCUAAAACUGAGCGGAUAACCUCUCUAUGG RNA 2: GGGAAUGGAUCCACAUCUACGAAUUCGCACCAUAGAGAGGUUAUCCGCUCAUGAAGAUCGGAAGAGCACACGU
16.4
